- Assayed System: NRAS Q61R (Homo sapiens (Human), UniProt P01111+P62937, Q61R)
- Sequence (P01111 whole entry Q61R): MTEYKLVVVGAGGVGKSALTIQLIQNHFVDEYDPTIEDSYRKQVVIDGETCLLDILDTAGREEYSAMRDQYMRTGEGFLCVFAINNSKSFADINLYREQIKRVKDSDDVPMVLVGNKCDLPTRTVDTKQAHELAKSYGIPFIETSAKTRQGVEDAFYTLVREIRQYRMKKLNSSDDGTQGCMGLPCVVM
- Sequence (P62937 whole entry): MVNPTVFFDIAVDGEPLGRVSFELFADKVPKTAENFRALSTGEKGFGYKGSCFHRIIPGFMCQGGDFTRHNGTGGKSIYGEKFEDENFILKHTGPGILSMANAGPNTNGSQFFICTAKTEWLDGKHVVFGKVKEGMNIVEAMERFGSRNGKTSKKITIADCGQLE
- Assay Summary: Ras-Raf disruption/FRET/MOA assay (BRAF RBD, Cyclophilin A)
- Format: biochemical
In this section we review reported IC50 values for a set of compounds.

A selection of reference data follows.
CCn1c(-c2cccnc2[C@H](C)OC)c2c3cc(ccc31)-c1csc(n1)C[C@H](NC(=O)[C@H](C(C)C)N(C)C(=O)N1CC3(CC(N(C)C4COC4)C3)C1)C(=O)N1CCC[C@H](N1)C(=O)OCC(C)(C)C2 100 to 1000 nM
CCn1c(-c2cccnc2[C@H](C)OC)c2c3cc(ccc31)-c1csc(n1)C[C@H](NC(=O)[C@H](C(C)C)N(C)C(=O)N1CCOCC13COC3)C(=O)N1CCC[C@H](N1)C(=O)OCC(C)(C)C2 100 to 1000 nM
CCn1c(-c2cccnc2[C@H](C)OC)c2c3cc(ccc31)-c1csc(n1)C[C@H](NC(=O)[C@H](C(C)C)N(C)C(=O)N1CCN(C)[C@@H](c3ccccc3)C1)C(=O)N1CCC[C@H](N1)C(=O)OCC(C)(C)C2 1000 to 10000 nM
CCn1c(-c2cccnc2[C@H](C)OC)c2c3cc(ccc31)-c1csc(n1)C[C@H](NC(=O)[C@H](C(C)C)N(C)C(=O)N1C[C@@H]3OCCN(C)[C@@H]3C1)C(=O)N1CCC[C@H](N1)C(=O)OCC(C)(C)C2 100 to 1000 nM

Given item CCn1c(-c2cccnc2[C@H](C)OC)c2c3cc(ccc31)-c1csc(n1)C[C@H](NC(=O)[C@H](C(C)C)N(C)C(=O)N(C)C1COC1)C(=O)N1CCC[C@H](N1)C(=O)OCC(C)(C)C2 , the value recorded as its IC50 is 100 to 1000 nM

Given item CCn1c(-c2cccnc2[C@H](C)OC)c2c3cc(ccc31)-c1cc(O)cc(c1)C[C@H](NC(=O)[C@@H]1CCCCCN1C(C)=O)C(=O)N1CCC[C@H](N1)C(=O)OCC(C)(C)C2 , the value recorded as its IC50 is 1000 to 10000 nM

Given item CCn1c(-c2cccnc2[C@H](C)OC)c2c3cc(ccc31)-c1csc(n1)C[C@H](NC(=O)[C@H](C(C)C)N(C)C(=O)N1CCO[C@@H](c3ccccc3)C1)C(=O)N1CCC[C@H](N1)C(=O)OCC(C)(C)C2 , the value recorded as its IC50 is 100 to 1000 nM

Given item CCn1c(-c2cccnc2[C@H](C)OC)c2c3cc(ccc31)-c1csc(n1)C[C@H](NC(=O)[C@H](C(C)C)N(C)C(=O)N1[C@H](C)COC[C@@H]1C)C(=O)N1CCC[C@H](N1)C(=O)OCC(C)(C)C2 , the value recorded as its IC50 is 100 to 1000 nM

Given item CCn1c(-c2cccnc2[C@H](C)OC)c2c3cc(ccc31)-c1csc(n1)C[C@H](NC(=O)[C@H](C(C)C)N(C)C(=O)N1CC([C@@H](CO)OC)C1)C(=O)N1CCC[C@H](N1)C(=O)OCC(C)(C)C2 , the value recorded as its IC50 is 100 to 1000 nM

* * *

- Assayed System: KRAS G12V (Homo sapiens (Human), UniProt P01116+P62937, G12V)
- Sequence (P01116 other isoform, or with tags, fused parts or gaps G12V): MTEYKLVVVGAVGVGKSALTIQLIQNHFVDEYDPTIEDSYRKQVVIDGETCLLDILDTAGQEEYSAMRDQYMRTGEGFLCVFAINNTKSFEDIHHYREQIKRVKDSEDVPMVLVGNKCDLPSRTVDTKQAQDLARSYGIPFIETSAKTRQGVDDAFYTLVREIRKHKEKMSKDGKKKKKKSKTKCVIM
- Sequence (P62937 whole entry): as the sequence (P62937 whole entry) above
- Assay Summary: Ras-Raf disruption/FRET/MOA assay (BRAF RBD, Cyclophilin A)
- Assay type: biochemical
- Settings: read-out: KRAS G12V FRET IC50
pIC50: −log10 of the molar value.
In this section we review reported pIC50 values for a set of molecules.

Noted pIC50 for CCn1c(-c2cccnc2[C@H](C)OC)c2c3cc(ccc31)-c1csc(n1)C[C@H](NC(=O)[C@H](C(C)C)N(C)C(=O)N1CC[C@@H]3CN(C)C[C@@H]31)C(=O)N1CCC[C@H](N1)C(=O)OCC(C)(C)C2 [Compound A470] , tested on KRAS G12V (Homo sapiens (Human), UniProt P01116+P62937, G12V): 5.00 to 6.00

Noted pIC50 for CCn1c(-c2cccnc2COC)c2c3cc(ccc31)-c1cc(O)cc(c1)C[C@H](NC(=O)[C@H](C(C)C)N(C)C(C)=O)C(=O)N1CCC[C@H](N1)C(=O)OCC(C)(C)C2 [Compound A55] , tested on KRAS G12V (Homo sapiens (Human), UniProt P01116+P62937, G12V): 5.00 to 6.00

Noted pIC50 for CCn1c(-c2cnccc2COC)c2c3cc(ccc31)-c1cc(O)cc(c1)C[C@H](NC(=O)[C@H](C(C)C)N(C)C(=O)c1ncc[nH]1)C(=O)N1CCC[C@H](N1)C(=O)OCC(C)(C)C2 [Compound A64] , tested on KRAS G12V (Homo sapiens (Human), UniProt P01116+P62937, G12V): 6.00 to 7.00

Noted pIC50 for CCn1c(-c2cccnc2[C@H](C)OC)c2c3cc(ccc31)-c1csc(n1)C[C@H](NC(=O)[C@H](C(C)C)N(C)C(=O)N1CC[C@H]1CN(C)C)C(=O)N1CCC[C@H](N1)C(=O)OCC(C)(C)C2 [Compound A508] , tested on KRAS G12V (Homo sapiens (Human), UniProt P01116+P62937, G12V): 5.00 to 6.00

Noted pIC50 for CCn1c(-c2cccnc2[C@H](C)OC)c2c3cc(ccc31)-c1cccc(c1)C[C@H](NC(=O)[C@H](C(C)C)N(C)C(=O)[C@@H]1CCN(C3COC3)C1)C(=O)N1CCC[C@H](N1)C(=O)OCC(C)(C)C2 [Compound A206] , tested on KRAS G12V (Homo sapiens (Human), UniProt P01116+P62937, G12V): < 5.00

Noted pIC50 for CCn1c(-c2cnccc2COC)c2c3cc(ccc31)-c1cc(O)cc(c1)C[C@H](NC(=O)[C@H](C(C)C)N(C)C(=O)[C@@H](C)O)C(=O)N1CCC[C@H](N1)C(=O)OCC(C)(C)C2 [Compound A92] , tested on KRAS G12V (Homo sapiens (Human), UniProt P01116+P62937, G12V): 5.00 to 6.00

Noted pIC50 for CCn1c(-c2cccnc2[C@H](C)OC)c2c3cc(ccc31)-c1cc(O)cc(c1)C[C@H](NC(=O)[C@H](C(C)C)N(C)C(=O)C1CNCCO1)C(=O)N1CCC[C@H](N1)C(=O)OCC(C)(C)C2 (stereo partly drawn) [Compound A229] , tested on KRAS G12V (Homo sapiens (Human), UniProt P01116+P62937, G12V): 6.00 to 7.00

Noted pIC50 for CCn1c(-c2cccnc2[C@H](C)OC)c2c3cc(ccc31)-c1cc(O)cc(c1)C[C@H](NC(=O)[C@H](C(C)C)N(C)C(=O)[C@H]1CCN(C(=O)[C@H]3CCCN3C)C1)C(=O)N1CCC[C@H](N1)C(=O)OCC(C)(C)C2 [Compound A371] , tested on KRAS G12V (Homo sapiens (Human), UniProt P01116+P62937, G12V): 7.00 to 8.00

Noted pIC50 for CCn1c(-c2cnccc2COC)c2c3cc(ccc31)-c1cc(O)cc(c1)C[C@H](NC(=O)[C@H](C(C)C)N(C)C(=O)[C@H]1CCN(C(=O)C(C)(C)N)C1)C(=O)N1CCC[C@H](N1)C(=O)OCC(C)(C)C2 [Compound A15] , tested on KRAS G12V (Homo sapiens (Human), UniProt P01116+P62937, G12V): 6.00 to 7.00
